# Test system: E. coli strain W3110
# procedureSummary: Synergy assays: Biolog chemical sensitivity panels with Group IB metal, coefficient of drug interaction (CDI) from relative growth
# Assay type: cell-based
# runConditions: Gold (μM), first of 3 gold concentrations; biocide concentration 3 of 4
reportedProperty: CDI (coefficient of drug interaction), gold + biocide

Answered examples (5):
response.value for CCCCCCCC(=O)[O-].[Na+] [sodium caprylate] (field: CDI (coefficient of drug interaction), gold + biocide) = Tox

Lab book: CDI (coefficient of drug interaction), gold + biocide of NCC(=O)NO [glycine hydroxamate] noted as 1.13

GET /value?item= CC1(C)S[C@@H]2[C@H](NC(=O)[C@H](NC(=O)N3CCNC3=O)c3ccccc3)C(=O)N2[C@H]1C(=O)O [aziocillin] &field=CDI (coefficient of drug interaction), gold + biocide returns 0.94

The reported CDI (coefficient of drug interaction), gold + biocide of the compound NC(CCC(=O)NO)C(=O)O [L-glutamic-γ-hydroxamate] was 1.08

Consider NC(CO)C(=O)NO (racemic) [D,L-serine hydroxamate] . Its measured CDI (coefficient of drug interaction), gold + biocide is 1.45

New cases:
Recorded result, CC1=C(C(=O)Nc2ccccc2)S(=O)(=O)CCO1 [Oxycarboxin] , CDI (coefficient of drug interaction), gold + biocide: Tox

Value of measured CDI (coefficient of drug interaction), gold + biocide for the entry O=C(O)/C=C/c1ccccc1 [Cimamic acid] : 1.19

Lab note: N.N.N.N.N.N.N.N.N.N.N.N.N.N.[Cl-].[Cl-].[Cl-].[Cl-].[Cl-].[Cl-].[O-2].[O-2].[Ru+3].[Ru+3].[Ru+4] [ruthenium red] gave CDI (coefficient of drug interaction), gold + biocide of 1.05

----------
# System: E. coli strain W3110
# procedureSummary: Synergy assays: Biolog chemical sensitivity panels with Group IB metal, coefficient of drug interaction (CDI) from relative growth
# Assay type: cell-based
# runConditions: Copper (mM) section, 1st of 3 copper concentrations (value not shown); 3rd of four biocide concentrations
reportedProperty: CDI (coefficient of drug interaction), copper mixed with biocide
No unit in the answer, please; the number alone is enough.

GET /value?item= CCCCCCCCCCCC[N+](C)(C)CCCS(=O)(=O)O [lauryl sulfobetaine] &field=CDI (coefficient of drug interaction), copper mixed with biocide returns 0.80

Continuing:
Short answer for CN[C@@H]1[C@@H](O)[C@@H](O[C@@H]2[C@@H](O)[C@H](O[C@H]3O[C@H]([C@@H](C)O)[C@@H](O)[C@H](O)[C@H]3N)[C@@H](N)C[C@H]2N)OC[C@]1(C)O [geneticin (G418)] : CDI (coefficient of drug interaction), copper mixed with biocide was 0.86

Looking up CCCCCCCC[N+](C)(CCCCCCCC)CCCCCCCC.[Br-] [Methyltrioctyl NH4+ Br−] , I see its CDI (coefficient of drug interaction), copper mixed with biocide listed as 1.39

Short answer for CN[C@H]1C[C@@H](N)[C@H](O)[C@@H](O[C@@H]2O[C@H](CO)[C@H](O)[C@@H]3OC4(O[C@H]23)O[C@H]([C@@H](N)CO)[C@H](O)[C@H](O)[C@H]4O)[C@@H]1O (some centres unmarked) [hygromycin B] : CDI (coefficient of drug interaction), copper mixed with biocide was 0.89

Measured CDI (coefficient of drug interaction), copper mixed with biocide, CN(C)C(=O)/N=N/C(=O)N(C)C [diamide] : 0.96

So for CCCCCCCCCCCC[N+](C)(C)C.[Br-] [Dodecyltrimethyl NH4^+ Br^−] , the logged CDI (coefficient of drug interaction), copper mixed with biocide turned out to be 1.51

Item: N.N.N.N.N.N.[Cl-].[Cl-].[Cl-].[Co+3] [hexammine cobalt (III) chloride] | CDI (coefficient of drug interaction), copper mixed with biocide: 1.19
